molecular target: T1, VEGF (human, UniProt P15692-4 27-191, limits assumed); assay: competitive phage-ELISA, relative to pY0192
T1 construct: Biotinylated in the KDR-IgG ELISA, amine-coupled to the chip in BIAcore; also called biotinylated VEGF; vascular endothelial growth factor
T1 sequence (P15692 other isoform, or with tags, fused parts or gaps limits assumed): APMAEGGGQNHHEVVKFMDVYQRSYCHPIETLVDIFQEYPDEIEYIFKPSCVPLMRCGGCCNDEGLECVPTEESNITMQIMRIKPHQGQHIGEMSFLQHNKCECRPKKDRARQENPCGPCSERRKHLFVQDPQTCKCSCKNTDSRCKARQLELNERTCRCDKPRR
Measured IC50 (mut)/IC50 (wt), listed per entry.
# number only, unit ratio dropped from output

[[record]]
binder = "pY0192 VL L29A (Fab, V domains shown, Ala-scan variant of pY0192; Fab on phage) VH: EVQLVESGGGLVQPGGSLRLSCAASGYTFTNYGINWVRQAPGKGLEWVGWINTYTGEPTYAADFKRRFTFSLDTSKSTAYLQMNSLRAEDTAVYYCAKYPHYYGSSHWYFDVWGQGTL VL: DIQLTQSPSSLSASVGDRVTITCRANEQASNYLNWYQQKPGKAPKVLIYFTSSLHSGVPSRFSGSGSGTDFTLTISSLQPEDFATYYCQQYSTVPWTFGQGTKVEIKR"
reported_value = 1

[[record]]
binder = "pY0192 VL F50A (Fab, V domains shown, Ala-scan variant of pY0192; Fab on phage) VH: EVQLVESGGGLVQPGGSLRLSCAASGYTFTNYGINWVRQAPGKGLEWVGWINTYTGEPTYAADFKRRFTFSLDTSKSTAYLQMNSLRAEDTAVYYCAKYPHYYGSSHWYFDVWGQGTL VL: DIQLTQSPSSLSASVGDRVTITCRANEQLSNYLNWYQQKPGKAPKVLIYATSSLHSGVPSRFSGSGSGTDFTLTISSLQPEDFATYYCQQYSTVPWTFGQGTKVEIKR"
reported_value = 1


[Q] Given pY0192 VL Q90A (Fab, V domains shown, Ala-scan variant of pY0192; Fab on phage) VH: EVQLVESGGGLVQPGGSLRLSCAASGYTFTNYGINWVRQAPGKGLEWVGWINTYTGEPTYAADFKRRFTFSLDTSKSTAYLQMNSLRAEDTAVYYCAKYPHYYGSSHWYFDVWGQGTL VL: DIQLTQSPSSLSASVGDRVTITCRANEQLSNYLNWYQQKPGKAPKVLIYFTSSLHSGVPSRFSGSGSGTDFTLTISSLQPEDFATYYCQAYSTVPWTFGQGTKVEIKR , respond with its IC50 (mut)/IC50 (wt).
[A] 3
